Task for the reader: assign each of the following compounds its reported EC50.
# Measured on: human β2-adrenergic receptor (Homo sapiens, UniProt P07550)
# Sequence (P07550 whole entry): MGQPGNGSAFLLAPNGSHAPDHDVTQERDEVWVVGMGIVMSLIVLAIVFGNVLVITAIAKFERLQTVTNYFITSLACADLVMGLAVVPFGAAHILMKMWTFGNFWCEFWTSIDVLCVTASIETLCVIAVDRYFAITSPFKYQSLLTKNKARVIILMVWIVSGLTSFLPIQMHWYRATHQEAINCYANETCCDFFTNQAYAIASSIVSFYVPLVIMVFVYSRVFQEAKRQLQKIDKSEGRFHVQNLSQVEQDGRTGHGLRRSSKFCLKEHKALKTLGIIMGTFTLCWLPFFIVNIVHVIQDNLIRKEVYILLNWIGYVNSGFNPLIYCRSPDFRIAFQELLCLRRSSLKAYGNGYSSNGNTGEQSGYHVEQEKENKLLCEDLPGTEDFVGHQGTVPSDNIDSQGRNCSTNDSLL
# Assay explanation: agonist effect on the human β2-adrenergic receptor, cellular cAMP accumulation assay (HTRF)
# Applied conditions: recombinant CHO cells, 30 minutes at room temperature, read-out: ECso
All answers are understood in nM, so give the number only.

Qu. Looking for the measured EC50 of COc1cc(C[C@H]2CO[C@H](c3ccc(O)c(OC)c3)[C@H]2CO)ccc1O [Lari, (+)-lariciresinol] , can you help?
Ans. 1700

Qu. Looking for the measured EC50 of COc1cc(CC2C(=O)OCC2C(O)c2ccc(O)c(OC)c2)ccc1O (single isomer, unassigned; (-)) [HMR2] , can you help?
Ans. 1500

Qu. Looking for the measured EC50 of COc1cc(C[C@@H](CO)[C@H](CO)Cc2ccc(O)c(OC)c2)ccc1O [Seco, (-)-Secoisolariciresinol] , can you help?
Ans. 2500

Qu. Looking for the measured EC50 of COc1cc(C[C@H]2C(=O)OC[C@@H]2C(O)c2ccc(O)c(OC)c2)ccc1O (mixture of isomers) [HMR] , can you help?
Ans. 350
